- measured.on: UniProt:Q9Y6L6
- Sequence (Q9Y6L6 whole entry): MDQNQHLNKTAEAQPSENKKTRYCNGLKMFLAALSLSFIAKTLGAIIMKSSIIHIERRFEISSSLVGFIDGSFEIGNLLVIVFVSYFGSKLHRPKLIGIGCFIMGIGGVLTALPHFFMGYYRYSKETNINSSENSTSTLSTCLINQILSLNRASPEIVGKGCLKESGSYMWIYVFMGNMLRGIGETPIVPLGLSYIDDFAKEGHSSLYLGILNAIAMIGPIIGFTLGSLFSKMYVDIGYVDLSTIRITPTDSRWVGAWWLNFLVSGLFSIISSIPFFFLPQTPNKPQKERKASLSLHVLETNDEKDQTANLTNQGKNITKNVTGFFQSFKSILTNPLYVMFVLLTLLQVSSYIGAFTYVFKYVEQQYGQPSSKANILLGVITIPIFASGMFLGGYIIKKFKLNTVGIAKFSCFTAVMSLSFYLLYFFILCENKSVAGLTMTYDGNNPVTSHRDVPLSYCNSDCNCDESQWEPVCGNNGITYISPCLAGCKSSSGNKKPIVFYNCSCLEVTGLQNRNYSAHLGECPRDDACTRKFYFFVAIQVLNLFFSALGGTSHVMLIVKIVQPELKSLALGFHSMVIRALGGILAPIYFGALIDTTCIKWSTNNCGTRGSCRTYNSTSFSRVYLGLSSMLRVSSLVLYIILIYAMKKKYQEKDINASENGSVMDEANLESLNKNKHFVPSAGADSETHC
- run.conditions: chinese hamster, cho, 10 µM

compound: Cc1cc(NS(=O)(=O)c2ccc(N)cc2)no1 [SULFAMETHOXAZOLE]
value.unit: %
residual activity: 104.3

compound: CN[C@@H](C)[C@@H](O)c1ccccc1.Cl [PSEUDOEPHEDRINE HYDROCHLORIDE]
value.unit: %
residual activity: 86.1

compound: CC(=O)O[C@@H]1C[C@@]2(C)[C@H](c3ccoc3)C[C@H]3O[C@]32[C@]2(C)C(=O)C(O)=C3C(C)(C)C(=O)C=C[C@]3(C)C12 (some centres not stated) [ANTHOTHECOL]
value.unit: %
residual activity: 20.37

compound: CCN(CC)CCOC(=O)C1(C2CCCCC2)CCCCC1.Cl [DICYCLOMINE HYDROCHLORIDE]
value.unit: %
residual activity: 106.9

compound: CC1=C2C(O)C(=O)OC3CC4C(C)(C)C(=O)C=C[C@]4(C)C(CC1)[C@]23C (some centres not stated) [MEROGEDUNIN]
value.unit: %
residual activity: 106.3

compound: CC(C)c1c(O)ccc2c1CC[C@H]1[C@@](C)(C=O)CCC[C@]21C [TOTARAL]
value.unit: %
residual activity: 80.52

compound: CN(C)CCCN1c2ccccc2Sc2ccc(Cl)cc21 [CHLORPROMAZINE]
value.unit: %
residual activity: 99.49

compound: CC(=O)O[C@H]1CC[C@@]2(C)C(=CC[C@@H]3[C@@H]2CC[C@]2(C)C4C(C[C@@H]32)OC2(CCC(C)CO2)[C@H]4C)C1 (some centres not stated)
value.unit: %
residual activity: 111

compound: Cl.NCC(O)c1ccc(O)cc1 (configuration not stated) [OCTOPAMINE HYDROCHLORIDE]
value.unit: %
residual activity: 89.25

compound: CNC(=O)Oc1ccccc1OC(C)C [PROPOXUR]
value.unit: %
residual activity: 104

compound: O=C(CCCCCCCCCCCCC1CCCC1)Nc1ccc(S(=O)(=O)c2ccc(NC(=O)CCCCCCCCCCCCC3CCCC3)cc2)cc1 [CHAULMOSULFONE]
value.unit: %
residual activity: 65.99

compound: Nc1ccn([C@@H]2O[C@H](CO)[C@@H](O)[C@H]2O)c(=O)n1 [CYTIDINE]
value.unit: %
residual activity: 99.44

compound: C/C=C/c1ccc2c(c1)OCO2 [ISOSAFROLE]
value.unit: %
residual activity: 75.01

compound: C#C[C@]1(OC(C)=O)CC[C@H]2[C@@H]3CCC4=CC(=O)CC[C@@H]4[C@H]3CC[C@@]21C [NORETHINDRONE ACETATE]
value.unit: %
residual activity: 106.9

compound: C[n+]1cc2c3c(ccc2c2ccc4cc5c(cc4c21)OCO5)OCO3.O=S(=O)([O-])O [SANGUINARINE SULFATE]
value.unit: %
residual activity: 134.6

compound: COc1c2occc2c(OC)c2c(=O)cc(C)oc12 [KHELLIN]
value.unit: %
residual activity: 83.15

compound: CC(=O)Nc1ccc(S(=O)(=O)Nc2ccc([N+](=O)[O-])cc2)cc1
value.unit: %
residual activity: 61.58

compound: O=C(O)c1ccccc1OP(=O)(O)O [FOSFOSAL]
value.unit: %
residual activity: 68.68

compound: CCCCC(CC)CN1CN(CC(CC)CCCC)CC(C)(N)C1 (configuration not stated) [HEXETIDINE]
value.unit: %
residual activity: 75.93

compound: CN[C@H]1C[C@@H](N)[C@H](O)[C@@H](O[C@@H]2O[C@H](CO)[C@H](O)[C@H]3O[C@@]4(O[C@H]23)O[C@H]([C@H](N)CO)[C@H](O)[C@H](O)[C@H]4O)[C@@H]1O
value.unit: %
residual activity: 103.7

compound: CC(=O)[C@H]1CC[C@H]2[C@@H]3CC[C@H]4C[C@H](O)CC[C@]4(C)[C@H]3CC[C@]12C [BREXANOLONE]
value.unit: %
residual activity: 41.5

compound: CO[C@H]1[C@H](O)[C@H](O[C@H]2CC[C@@]3(C)[C@H](CC[C@@H]4[C@@H]3CC[C@]3(C)[C@@H](C5=CC(=O)OC5)CC[C@]43O)C2)O[C@@H](C)[C@@H]1O [NERIIFOLIN]
value.unit: %
residual activity: 95.6

compound: Cc1ncc(CNC(=O)N(CCCl)N=O)c(N)n1 [NIMUSTINE]
value.unit: %
residual activity: 121.9

compound: Cl.O=C1NCC2(CCN(CCc3ccccc3)CC2)O1 [FENSPIRIDE HYDROCHLORIDE]
value.unit: %
residual activity: 107.4

compound: N=C1C=CC(=C(c2ccc(N)cc2)c2ccc(N)cc2)C=C1.N=C1C=CC(=C(c2ccc(N)cc2)c2ccc(N)cc2)C=C1.O.O.O=C(O)c1cc2ccccc2c(Cc2c(O)c(C(=O)O)cc3ccccc23)c1O [PARAROSANILINE PAMOATE]
value.unit: %
residual activity: 66.86

compound: CN[C@H]1CC[C@@H](c2ccc(Cl)c(Cl)c2)c2ccccc21.Cl [SERTRALINE HYDROCHLORIDE]
value.unit: %
residual activity: 66.16

compound: C[C@](N)(Cc1ccc(O)cc1)C(=O)O [METYROSINE]
value.unit: %
residual activity: 64.38

compound: C=C1C(=O)O[C@@H]2C3O[C@]3(C)CC/C=C(\C)CC[C@@H]12 (some centres not stated)
value.unit: %
residual activity: 140.7

compound: COc1cccc(OC)c1OCCNCC1COc2ccccc2O1.Cl (configuration not stated)
value.unit: %
residual activity: 247.1

compound: CNC(=O)Oc1ccc2c(c1)[C@]1(C)CCN(C)[C@@H]1N2C.O=C(O)c1ccccc1O [PHYSOSTIGMINE SALICYLATE]
value.unit: %
residual activity: 116

compound: COC(=O)N/N=C/c1c[n+]([O-])c2ccccc2[n+]1[O-] [CARBADOX]
value.unit: %
residual activity: 84.43

compound: COc1c(CC(=O)c2cc3c(cc2O)OC(C)(C)C(O)C3)ccc2c1C=CC(C)(C)O2 (configuration not stated) [DIHYDROMUNDULETONE]
value.unit: %
residual activity: 30.26
